src = the supplement of paper PMC7125110

Please respond with reported self-cleavage kobs at 640 uM GlcN6P for every item in the list.
B1: glmS ribozyme (parent)
chain: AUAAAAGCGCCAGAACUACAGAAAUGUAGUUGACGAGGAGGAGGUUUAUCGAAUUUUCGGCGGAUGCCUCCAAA

# Variants of: B1
# protocolSummary: self-cleavage kobs at 640 uM GlcN6P; higher = faster cleavage; RNA array
# particulars: with glucosamine-6-phosphate
Fewer inactive variants are shown than the library holds.
Numbers only, in s⁻¹.

>>> print(df.to_string())
   mutationlabel                        propertylabel  unitabbrev     value
0      G13U C71A  self-cleavage kobs at 640 uM GlcN6P         s⁻¹  5.95e-05

Would you mind giving self-cleavage kobs at 640 uM GlcN6P for every variant in the list below?
1. C11G C50U U57A G60A C67U
2. A53G C71U
3. U30C C58U C70U
4. U54A C67U C68A
5. C11U U31A C50G
6. U30A U54C C71U
7. U46G G66A
8. C16G G29C

0.000609
0.00661
5.85e-05
6.98e-05
8.34e-05
0.00109
0.00155
0.00972

Requested read-out: self-cleavage kobs at 640 uM GlcN6P. Entry: A14G G29C
9.55e-05
